B1: TPR t1 (parent)
chain: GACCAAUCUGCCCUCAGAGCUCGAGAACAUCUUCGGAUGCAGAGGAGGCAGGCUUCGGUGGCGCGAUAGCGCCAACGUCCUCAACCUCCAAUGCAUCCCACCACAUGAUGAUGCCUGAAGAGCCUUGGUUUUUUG

- Variants of: B1
- procedureSummary: polymerase ribozyme fitness, log enrichment relative to wild type (log ratio); higher = more active; in vitro selection for triplet polymerase activity
Definition: the class of an entry is the range in low class (below -4), middle class (-4 to below -2), high class (-2 or more) that contains its polymerase ribozyme fitness (log ratio).

polymersequence=GACCAAUCUGCCCUCAGAGCUGGAGAACAUCUUCGGAUGGAGAGGAGGCAGGCUUCGGUGGCGCUAUAACGCCAACGUCCUCAACCUCCAAUGCAUCCAAACACAUGAUGAUGCCUGAAGAGUCUUGGUUUUUUG classassignment="low class"
polymersequence=GACCAAUCUGCACUCAGAGCUAGAGAACAUCUUCGGAUGUAGAGGAGGCAGGCUUCGCUGGCGCGAUAGCGCCAACGUCCUCAACAUCCAAUGCAUCCCACCACAUGAUGAGGCCUGAAGAGCCUUGGUUUUUUG classassignment="low class"
polymersequence=GACCAAUCUGCCCUCAGAGCUCGAGAACAUCUUCGGAUGCAGAGGAGGCAGGCUUCGGUGGCGCGAUAGCGACAACGUACUCAACCUCCAAUGCAUCCCACCACAUGAUGAUGCCUGAAGAGCCUUGGUUUUUUG classassignment="high class"
polymersequence=GACCAAUCUGCCCUAAGAGCUCGAGAACAUCUUCGGAUGCAGAGGAGGCAGGCUUCGGUGGCGCGAUAGGGCCAACGUCCUCAACCUCCAAUGCAUCCAACCACAUGAUGAUGCCUAAAGAGCAUUGAUUUUUUG classassignment="low class"
polymersequence=GACCAAUCUGCCCUCAGAGCUCGAGAACAUCUUCGGAUGCAGAGAAGGCAGGAUUCGGUGGCGCGAUAGCGCCAACGUCCUCAACCUCCAAUGCAUCCCACCACAUGAGUAUGCCUGAAGUGCCUUGGUUUUUUG classassignment="middle class"
polymersequence=GACCAAUCUGCCCUCAGAGCUCGAGAACAUCUUCGGAUGUAGAGGAGGCAGGCUUCGGUGGCGCGAUAGCGCCAACGUCCUCAACCUCCAAUGCAUCCCACCAAAUGAUGAUGCCUGAAGAGCCUUGGUUUUUUG classassignment="middle class"
polymersequence=GACCAAUCUGCCCUCAGAGCUCGAGAACAUCUUCGGAUGCAGAGGAGGCAGGCUUCGGUGGCGCGAUAGCGCCAACGUCCUCGACCUCCAAUGCAUACCACCACAUGAUGAUGCCUGAAGAGCCUUGGUUUUUUG classassignment="low class"
polymersequence=GACCAAUCUGCCCUCAGAGCUCGAGAACAUCUUCGGAUGCAGAGGAGGCAGGCUUCGGUGGCGCGAUAGCGCCAACGUCCUCGACCUCCAAUGCAUCCCACCACAUGACGAUGCCUGAAGAGCCUUGGUUUUUUG classassignment="low class"
polymersequence=GACCAAUCUGCCCUCAGAGCUCGAGAACAUCUUAGGAUGCAGAGGAGGCAGGCUUCGGUGGCGCGAUAGCUCCAACGUCCUCAACCUCCAAUGCAUCCCACCACAUGAUGAUGCCUGAAGAGCCUUGGUUUUUUG classassignment="middle class"
polymersequence=GACCAAUCUGCCCUCAGAGCUCGAGAACAUCUUCGGAUGCAGAGGAGGCAGGCUUCGGUGGCGCGAUAGCGCCAACGUCCUCAACCUCCAAUGCAUCCCACCACAUGAUGAUGCCUGAAGAGACUAGGUGUUGUG classassignment="high class"
polymersequence=GACCAAUCUGCCCUCAGAGCUCGAGAACAUCUUCGGAUGAAGAGGAGGCAGGCUUCGGUGGCGCGAUAGCGUCAACGUCCUCAACCUCCAAAGCAUCCCACCACAUGAUGAUGCAUGAAGAGCCUUGGUUUUUUG classassignment="high class"
polymersequence=GACCAAUCUGUCCUCAGAGCUCGAGUACAUCUUCGGAUGCAGAGGCGGGAGGCUUCGGUGGCGCGAUAGCGUCAACGUCCUCAACGUCCAAUGCAUCCCACCACAUGAUGAUGCCUGAAGAGCCUUGGUUUUUUG classassignment="low class"
polymersequence=GACCAAUCUGCCCUCAGAGCUCGAGAACAUCUUCGGAUGCAGAGGAGGCAGGCAUUGGUGGCGCGAUAGCGCCAACGUCCUCAACCUCCAAUGCAUCCCACCACAUGAUGAUGCCUGAAGAGCCUUGGUUUUAUG classassignment="high class"
polymersequence=GACCAAGCUGCCCUCAGAGCUCGAGAACAUCUUCGGAUGCAAAGGAGGCAGGCUUCGGUGGCCCGAUAGCGCCAACGUCCACAACCUCCAAUGCAUCCCACCACAUGAAGAUGCCUGAAGAGCCUUGGUCUUUUG classassignment="low class"
polymersequence=GAACAAUCUGCCCUCAGAGCUCGAGAACAUCUUCGGAUGCAGAGGAGGCAGGCUUCGGUGGCGCGAUAGCACCAACGUCCUCAACCUCCAAUGCAUCCCACCACAUGAUGAUGCCUGAAGAGCCUUGGUCUUUUG classassignment="high class"
polymersequence=GACCAAUCCGCCCUCAGAGCUCGAGAACAUCUUCGGAUGCAGAGGAGGCAGGCUUCGGUGGCGCGAUAGCGCAAACGUCCUCAAGCUCCAAUGCAUCCCACCACAUGAUGAUGCCUGAAGAGCCUUGGUUUUUUG classassignment="high class"
polymersequence=GACCAAUCUGCCCUCACAGCUCGAGAACAUCUUCGGAUGCAGAGGAGGCAGGCUUCGGUGGCGUGAUAGCGCCAACGUCCUCAACCUCCAAUGCAUCCCACCACAUGAUGAUGCCUGAAGAGCCUUGGUUUUUUG classassignment="low class"
polymersequence=GACCAAUCUGCCCUCAGAGCUCGAGAACAUCUUCGGAUGCAGAGGAGGCAGUCUUCGGUGGCGCGAUACCGCAAACGUCCUCAACCUCCAAUGCAUCCCACCACAUGAUGAUGCCUGAAGAGCCUUGGUUUUUUG classassignment="middle class"
polymersequence=GACCAAGCUGCCCUCAGAGUUCGAGAACAUCUUCGGAUGCAGAGGAGGCAGGCUUCGGUCGCGCGAUAGCGCCAACGUCCUCAACCUCCAAUGCAUCCCACCACAUGAUGAUGCCUGAAGAGCCUUGGUUUUGUG classassignment="high class"
polymersequence=GACCAACCUGCCCUCAGAGCUCGAGAACAUCUUCGGAUGCAGAGGAGGCAGGCUUCGGUGGCGCGAUAGCGCCAACGUCCUCAACCUCCAAUACAUCCCACCACAUGAUGAUGCCUGAAGAGCCUUGGUUUUUUG classassignment="high class"
polymersequence=GACCAAUCUGCCGUCAGAGCUCGAGAACAUCUUCGGAUGCAGAGGAGGCAGGCUUCGGUGGCUCGAUAGCGCCAACGUCCUCAACCUCCAAUGCAUCCCACCACAUGAUGAUGCCUGAAGAGCCUUGGUUUUUUG classassignment="middle class"
polymersequence=GACCAAUCUGCCCUCAGAGCUCGAGAACAUCUUCGGAUGCAGAGGAGGCAGGCUUCGGUGGCGCGAUAGCGCCAACGUCCUCAACCUACAAUGAAUCCCACCACAUGAUGAUGCCUGAAGAGCCUUGGUUUUUUG classassignment="high class"
polymersequence=GACCAUUCUGCCCUCAGAGCUCGAGAACAUCUUCGGAUGCAGAGGAGGCAGGCUUCGGUGGCGCGAUAGCGCCAACGGCCUCCACCUCCAAUGCAUCCCACCACAUGAUGAUGCCUGAAGAGCCUUGGUUUUUUG classassignment="high class"
